STUDY TARGET: T1, human GIP receptor (human) (UniProt P48546)
T1 sequence (looked up): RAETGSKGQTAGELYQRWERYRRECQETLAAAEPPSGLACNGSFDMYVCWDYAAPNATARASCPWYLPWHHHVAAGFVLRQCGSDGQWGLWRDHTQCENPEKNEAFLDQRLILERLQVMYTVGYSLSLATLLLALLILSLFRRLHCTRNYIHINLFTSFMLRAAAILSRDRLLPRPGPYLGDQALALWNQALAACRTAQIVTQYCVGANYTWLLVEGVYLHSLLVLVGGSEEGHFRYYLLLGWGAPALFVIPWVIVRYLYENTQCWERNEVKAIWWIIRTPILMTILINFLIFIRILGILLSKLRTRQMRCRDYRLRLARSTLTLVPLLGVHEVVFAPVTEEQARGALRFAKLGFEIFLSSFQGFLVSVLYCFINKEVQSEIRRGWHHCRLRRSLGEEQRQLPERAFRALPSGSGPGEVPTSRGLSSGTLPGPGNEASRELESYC
EXPERIMENTAL DETAILS: cell-based or functional assay
REPORTED ENDPOINT: cAMP Rel EC50, nM (1% HSA) (nM)
Express the result in nM but write the number alone.

// solved cases for cAMP Rel EC50, nM (1% HSA) follow
YXQGTFTSDFSXXLDKKAQXAFIEYLLEAGPSSGEPPPSGQ (ornithine at residue 12; synthetic construct; SITE 2: note = 2-Aminoisobutyric Acid; SITE 12: note = L-ornithine; SITE 13: note = alpha-methyl-leucine; SITE 17: note = Lysine is chemically modified through conjugation of the epsilon-amino group of the Lysine side chain with (2-[2-(2-Amino-ethoxy)-ethoxy]-acetyl)2-(gamma-Glu)) [Example 157]: 22.2
YXQGTXTSDXXIXLDXKAQXEFIEXLIEGGPSSGEPPPEGTGE (synthetic construct; SITE 2: note = 2-Aminoisobutyric Acid; SITE 6: note = alpha-methyl-2-fluoro-L-phenylalanine; SITE 10: note = 3-(4-Pyridyl)-L-alanine; SITE 11: note = alpha-methyl-L-serine; SITE 13: note = alpha-methyl-leucine; SITE 16: note = L-ornithine; SITE 17: note = Lysine is chemically mo) [Example 763]: 1.16
YXQGTXTSDYSIXLDKKAQXAFIEYLEEGGPSSGAPPPSEG (synthetic construct; SITE 2: note = 2-Aminoisobutyric Acid; SITE 6: note = alpha-methyl-2-fluoro-L-phenylalanine; SITE 13: note = alpha-methyl-leucine; SITE 17: note = Lysine is chemically modified through conjugation of the epsilon-amino group of the Lysine side chain with (2-[2-(2-Amino-ethoxy)-et)) [Example 431]: 3.73
YXQGTFTSDXSQXLDXKAQXAFIEYLIEAGPSSGAPPPSGSE (not fully specified; Aib, 4Pal, αMeL, Orn, Me4Pal, acylated K, C-terminal amide; synthetic construct; SITE 2: note = 2-Aminoisobutyric Acid; SITE 10: note = 3-(4-Pyridyl)-L-alanine; SITE 13: note = alpha-methyl-leucine; SITE 16: note = L-ornithine; SITE 17: note = Lysine is chemically modified through conjugation of the epsilon-amino group of the Lysine side chain with (2-[2-(2-) [Example 1022]: 27.9
YXQGTFTSDXSQXLDXKAQXAFIEYLIAGGPSSGEPPPSGSGE (non-natural residues, acylated Lys; synthetic construct; SITE 2: note = 2-Aminoisobutyric Acid; SITE 10: note = 3-(4-Pyridyl)-L-alanine; SITE 13: note = alpha-methyl-leucine; SITE 16: note = L-ornithine; SITE 17: note = Lysine is chemically modified through conjugation of the epsilon-amino group of the Lysine side chain with (gamma-Gl)) [Example 978]: 33.9

Reported cAMP Rel EC50, nM (1% HSA) for YXQGTXTSDXXIXLDXKAQXSFIEXLIEGGPSSGEPPPE (synthetic construct; SITE 2: note = 2-Aminoisobutyric Acid; SITE 6: note = alpha-methyl-2-fluoro-L-phenylalanine; SITE 10: note = 3-(4-Pyridyl)-L-alanine; SITE 11: note = alpha-methyl-L-serine; SITE 13: note = alpha-methyl-leucine; SITE 16: note = L-ornithine; SITE 17: note = Lysine is chemically mo) [Example 436] was 1.18

Reported cAMP Rel EC50, nM (1% HSA) for YXQGTFTSDXSQXLDXKAQXAFIEXLIEGGPSSGEPPPSGSEE (non-natural residues; lysine acylated with C18 diacid; C-terminal amide; synthetic construct; SITE 2: note = 2-Aminoisobutyric Acid; SITE 10: note = 3-(4-Pyridyl)-L-alanine; SITE 13: note = alpha-methyl-leucine; SITE 16: note = L-ornithine; SITE 17: note = Lysine is chemically modified through conjugation of the epsilon-amino group of the Lysine side chain with (gamma-Gl)) [Example 1028] was 157

Reference source: patent US20240270821A1
